Each recorded value in this set is attributed to patent US7604970B2.

- EXPERIMENT SUMMARY: Enzymatic screening: simultaneous assay of the two methylation activities of PapM (ratio r)
- Type: biochemical, S. pristinaespiralis
- ASSAY CONDITIONS: 7 sequenced clones; experiment in which wild-type ratio was 0.40

>  <MOLECULE>
4-amino-L-phenylalanine (phenyl N)-methyltransferase (protein, UniProt P72542 1-292, looked up) 4-amino-L-phenylalanine/4-meth …: MTAAAPTLAQALDEATGQLTGAGITADAARADTRLLAAHACQVAPGDLDTCLAGPVPPRFWHYVRRRLTREPAERIVGHAYFMGHRFDLAPGVFVPKPETEEITRDAIARLEALVRRGTTAPLVVDLCAGPGTMAVTLARHVPAARVLGIELSQAAARAARRNARGTGARIVQGDARDAFPELSGTVDLVVTNPPYIPIGLRTSAPEVLEHDPPLALWAGEEGLGMIRAMERTAARLLAPGGVLLLEHGSYQLASVPALFRATGRWSHASSRPTCNDGCLTAVRNHTCAPPA

>  <Ratio (r redetermined)>
0.40

$$$$
